System: subcutaneously pentetrazol-injected model (scPTZ)
Experiment: Subcutaneously pentetrazol-injected model (scPTZ) test
Type: in vivo, mice
Conditions: Mus musculus, po, 1 h, 100 mg/kg oral, Slc: ddY male mice, 3 per group, pentetrazol 85 mg/kg s.c. after 1 hour, observed 30 minutes for clonic convulsion; read-out: scPTZ (positive number/tested number) (converted)
Here, each record is paired with measured responders at 100 mg/kg data.

[
  {
    "compound": "NC(=O)Cc1ccccc1-c1ccc(Cl)cc1",
    "result units": "%",
    "responders at 100 mg/kg": 33.3
  },
  {
    "compound": "CNC(=O)Cc1ccccc1-c1ccc(F)cc1C(F)(F)F",
    "result units": "%",
    "responders at 100 mg/kg": 0
  },
  {
    "compound": "CNC(=O)Cc1cc(F)ccc1-c1cccc(F)c1",
    "result units": "%",
    "responders at 100 mg/kg": 0
  },
  {
    "compound": "NC(=O)C(O)c1ccccc1-c1cc(F)cc(Cl)c1 (stereo not shown)",
    "result units": "%",
    "responders at 100 mg/kg": 100
  },
  {
    "compound": "NC(=O)Cc1cc(F)ccc1-c1ccc(F)cc1 [Example 114, 2-(4,4′-difluorobiphenyl-2-yl)acetamide]",
    "result units": "%",
    "responders at 100 mg/kg": 33.3
  },
  {
    "compound": "NC(=O)C(F)c1ccccc1-c1cccc(F)c1 (stereo not shown)",
    "result units": "%",
    "responders at 100 mg/kg": 100
  },
  {
    "compound": "CNC(=O)Cc1ccccc1-c1cccc(SC)c1",
    "result units": "%",
    "responders at 100 mg/kg": 100
  },
  {
    "compound": "COC(C(N)=O)c1ccccc1-c1cccc(Cl)c1 (stereo not shown)",
    "result units": "%",
    "responders at 100 mg/kg": 66.7
  },
  {
    "compound": "CN(C)C(=O)Cc1ccccc1-c1ccccc1F",
    "result units": "%",
    "responders at 100 mg/kg": 66.7
  },
  {
    "compound": "NC(=O)C(F)(F)c1ccccc1-c1ccccc1 [Example 174, 2-(biphenyl-2-yl)-2,2-difluoroacetamide]",
    "result units": "%",
    "responders at 100 mg/kg": 66.7
  },
  {
    "compound": "CC(C(N)=O)c1ccccc1-c1cccc(F)c1 (stereo not shown) [Example 175, 2-(3′-fluorobiphenyl-2-yl)propanamide]",
    "result units": "%",
    "responders at 100 mg/kg": 100
  },
  {
    "compound": "CNC(=O)Cc1ccccc1-c1cc(F)ccc1C(F)(F)F",
    "result units": "%",
    "responders at 100 mg/kg": 0
  },
  {
    "compound": "CNC(=O)Cc1ccccc1-c1cccc(OC(F)(F)F)c1",
    "result units": "%",
    "responders at 100 mg/kg": 33.3
  },
  {
    "compound": "NC(=O)Cc1ccccc1-c1ccc(Cl)cc1Cl [Example 78, 2-(2′,4′-dichlorobiphenyl-2-yl)acetamide]",
    "result units": "%",
    "responders at 100 mg/kg": 66.7
  },
  {
    "compound": "NC(=O)Cc1ccccc1-c1cccc(OC(F)(F)F)c1",
    "result units": "%",
    "responders at 100 mg/kg": 100
  },
  {
    "compound": "NC(=O)Cc1ccccc1-c1ccc(F)cc1F",
    "result units": "%",
    "responders at 100 mg/kg": 33.3
  },
  {
    "compound": "NC(=O)Cc1ccccc1-c1cc(F)c(F)cc1F",
    "result units": "%",
    "responders at 100 mg/kg": 66.7
  },
  {
    "compound": "CNC(=O)Cc1cc(Cl)ccc1-c1ccc(C(F)(F)F)cc1",
    "result units": "%",
    "responders at 100 mg/kg": 100
  },
  {
    "compound": "O=C(Cc1ccccc1-c1ccccc1F)NCC1CC1",
    "result units": "%",
    "responders at 100 mg/kg": 0
  },
  {
    "compound": "NC(=O)Cc1ccccc1-c1ccc(OC(F)(F)F)cc1",
    "result units": "%",
    "responders at 100 mg/kg": 66.7
  },
  {
    "compound": "CNC(=O)Cc1ccccc1-c1ccccc1C(F)(F)F",
    "result units": "%",
    "responders at 100 mg/kg": 66.7
  },
  {
    "compound": "NC(=O)Cc1ccccc1-c1cc(F)c(F)c(F)c1",
    "result units": "%",
    "responders at 100 mg/kg": 66.7
  },
  {
    "compound": "NC(=O)Cc1ccccc1-c1cc(C(F)(F)F)ccc1Cl",
    "result units": "%",
    "responders at 100 mg/kg": 66.7
  },
  {
    "compound": "COC(C(N)=O)c1ccccc1-c1ccc(F)cc1 (stereo not shown)",
    "result units": "%",
    "responders at 100 mg/kg": 100
  },
  {
    "compound": "NC(=O)C(O)c1cc(F)ccc1-c1cccc(F)c1 (stereo not shown)",
    "result units": "%",
    "responders at 100 mg/kg": 66.7
  },
  {
    "compound": "COC(C(=O)N(C)C)c1ccccc1-c1ccccc1 (stereo not shown)",
    "result units": "%",
    "responders at 100 mg/kg": 66.7
  },
  {
    "compound": "NC(=O)Cc1ccc(Cl)cc1-c1ccccc1F",
    "result units": "%",
    "responders at 100 mg/kg": 66.7
  },
  {
    "compound": "NC(=O)C(O)c1ccccc1-c1cc(F)ccc1F (stereo not shown)",
    "result units": "%",
    "responders at 100 mg/kg": 33.3
  },
  {
    "compound": "CN(C)C(=O)Cc1ccccc1-c1ccc(C(F)(F)F)cc1",
    "result units": "%",
    "responders at 100 mg/kg": 33.3
  },
  {
    "compound": "CNC(=O)Cc1ccccc1-c1cccc(Cl)c1",
    "result units": "%",
    "responders at 100 mg/kg": 0
  },
  {
    "compound": "NC(=O)C(O)c1ccccc1-c1ccccc1 (stereo not shown) [Example 59, 2-(Biphenyl-2-yl)-2-hydroxyacetamide]",
    "result units": "%",
    "responders at 100 mg/kg": 66.7
  },
  {
    "compound": "CNC(=O)Cc1ccccc1-c1ccc(F)cc1",
    "result units": "%",
    "responders at 100 mg/kg": 33.3
  },
  {
    "compound": "CNC(=O)C(F)(F)c1ccccc1-c1ccccc1",
    "result units": "%",
    "responders at 100 mg/kg": 33.3
  },
  {
    "compound": "Cc1ccc(-c2ccccc2)c(CC(N)=O)c1",
    "result units": "%",
    "responders at 100 mg/kg": 66.7
  },
  {
    "compound": "CCNC(=O)Cc1cc(Cl)ccc1-c1ccccc1",
    "result units": "%",
    "responders at 100 mg/kg": 33.3
  },
  {
    "compound": "NC(=O)Cc1ccccc1-c1cc(F)cc(Cl)c1",
    "result units": "%",
    "responders at 100 mg/kg": 100
  },
  {
    "compound": "NC(=O)Cc1cc(F)ccc1-c1ccccc1F [Example 46, 2-(2′,4-difluorobiphenyl-2-yl)acetamide]",
    "result units": "%",
    "responders at 100 mg/kg": 100
  },
  {
    "compound": "NC(=O)C1(c2ccccc2-c2cccc(F)c2)CC1",
    "result units": "%",
    "responders at 100 mg/kg": 66.7
  },
  {
    "compound": "CNC(=O)Cc1ccccc1-c1ccc(Cl)cc1C(F)(F)F",
    "result units": "%",
    "responders at 100 mg/kg": 66.7
  },
  {
    "compound": "NC(=O)Cc1ccccc1-c1ccc(Cl)c(F)c1",
    "result units": "%",
    "responders at 100 mg/kg": 33.3
  }
]

###

Tested on: maximum electroshock seizure (MES) model
Experiment: Maximum electroshock seizure (MES) model test
Format: in vivo, mice
Details: Mus musculus, po, 1 h, 100 mg/kg oral, Slc: ddY male mice, 3 per group, electrical stimulation 1 hour after administration; inhibition of hind limb extension; read-out: MES (positive number/tested number) (converted)
Consider the following molecules and their measured responders at 100 mg/kg readings.

[
  {
    "molecule": "CNC(=O)Cc1cc(F)c(F)cc1-c1cccc(F)c1 [Example 148]",
    "responders at 100 mg/kg / %": 0
  },
  {
    "molecule": "CNC(=O)C1(c2ccccc2-c2ccccc2)CC1 [Example 156]",
    "responders at 100 mg/kg / %": 100
  },
  {
    "molecule": "NC(=O)Cc1ccccc1-c1cc(Cl)cc(Cl)c1 [Example 71, 2-(3′,5′-dichlorobiphenyl-2-yl)acetamide]",
    "responders at 100 mg/kg / %": 100
  },
  {
    "molecule": "CNC(=O)C(C)c1ccccc1-c1ccccc1F (stereo not drawn) [Example 58]",
    "responders at 100 mg/kg / %": 66.7
  },
  {
    "molecule": "CNC(=O)Cc1c(F)cccc1-c1cccc(F)c1 [Example 141]",
    "responders at 100 mg/kg / %": 66.7
  },
  {
    "molecule": "NC(=O)Cc1cc(Cl)ccc1-c1cccc(F)c1 [Example 139]",
    "responders at 100 mg/kg / %": 66.7
  },
  {
    "molecule": "CNC(=O)Cc1ccccc1-c1cccc(OC(F)(F)F)c1 [Example 99]",
    "responders at 100 mg/kg / %": 100
  },
  {
    "molecule": "NC(=O)Cc1ccccc1-c1cccc(Br)c1 [Example 52, 2-(3′-bromobiphenyl-2-yl)acetamide]",
    "responders at 100 mg/kg / %": 100
  },
  {
    "molecule": "NC(=O)C(O)c1ccccc1-c1ccc(Cl)c(C(F)(F)F)c1 (stereo not drawn) [Example 195]",
    "responders at 100 mg/kg / %": 100
  }
]
